Reference source: patent US20230105029A1

target: T1, recombinant human IL4Rα-his protein (in house made) (human, UniProt P24394 26-232, limits assumed); assay: SPR (Biacore), antibody captured, IL4Rα-his flowed
T1 construct: also called Human IL4Ra-his
pKd: −log10 of the molar value.
observedProperty: pKd

binder="huC2C1A1A1-V16 (antibody, human IgG4 S228P, kappa, V domains shown, Humanized, human IgG4/kappa) VH: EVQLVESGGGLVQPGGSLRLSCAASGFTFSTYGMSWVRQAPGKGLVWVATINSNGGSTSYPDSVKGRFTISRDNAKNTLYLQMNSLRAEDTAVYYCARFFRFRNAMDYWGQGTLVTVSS VL: DIQMTQSPSSLSASVGDRVTITCRTSENIYSYLAWYQQKPGKAPKFLIYNAKTLAEGVPSRFSGSGSGTDFTLTISSLQPEDFATYYCQHYYGPPTWTFGQGTKVEIKR" observedproperty=pKd measurement="> 10.47"

Task item: Please look up its pKd: huC2C1A1A1-V8 (antibody, human IgG4 S228P, kappa, V domains shown, Humanized, human IgG4/kappa) VH: EVQLVESGGGLVQPGGSLRLSCAASGFTFSTYGMSWVRQSPDKRLEWVSTINSNGGSTSYPDSVKGRFTISRDNAKNTLYLQMRSLRAEDTAVYYCARFFRFRNAMDYWGQGTLVTVSS VL: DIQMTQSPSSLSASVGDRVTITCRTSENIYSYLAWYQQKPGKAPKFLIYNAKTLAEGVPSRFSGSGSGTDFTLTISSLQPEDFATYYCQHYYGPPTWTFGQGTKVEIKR
Reply: > 10.44

Task item: Check huC2C1A1A1-V7 (antibody, human IgG4, V domains shown, Humanized, human IgG4/kappa) VH: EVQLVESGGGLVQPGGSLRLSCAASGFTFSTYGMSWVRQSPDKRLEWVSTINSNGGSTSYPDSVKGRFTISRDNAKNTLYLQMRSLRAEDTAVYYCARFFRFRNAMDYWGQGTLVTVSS VL: DIQMTQSPSSLSASVGDRVTITCRTSENIYSYLAWYQQKPGKAPKFLVYNAKTLAEGVPSRFSGSGSGTDFTLTISSLQPEDFATYYCQHYYGPPTWTFGQGTKVEIKR too.
Reply: > 10.42
